The measured values listed here are drawn from ChEMBL document CHEMBL5303304.

- Test system: HEK-293T
- measurement description: Incucyte cell viability with HEK293T; note: unitless GR value; below 1 slowed growth and below 0 cell loss
- Format: toxicity, cell-based
- measurement conditions: human, 0 h, 10 µM, compound concentration 10 uM, replicate number 1
metric: Growth Rate
Just the number, please, no unit attached.

Some compounds with recorded Growth Rate:
compound=O=C(O)CCn1c2c(c3ccccc31)C[C@H](NS(=O)(=O)c1ccc(F)cc1)CC2 metric="Growth Rate" measurement=0.1
compound=C[C@H](CCC(=O)O)[C@H]1CC[C@H]2[C@@H]3CC[C@@H]4C[C@H](O)CC[C@]4(C)[C@H]3CC[C@]12C metric="Growth Rate" measurement=0.14
compound=CCc1ccccc1C(=O)Nc1n[nH]c2c(C)c(F)c(C3C(C#N)=C(C)N(C)C(C)=C3C#N)cc12 metric="Growth Rate" measurement=0.25
compound=N#Cc1ccc(C#CC[C@@H](C#N)NC(=O)[C@@H]2CCCCN2)cc1F metric="Growth Rate" measurement=0.68
compound=CCOc1ccccc1C(=O)NCC1(N2CCN(CC)CC2)CCCCC1 metric="Growth Rate" measurement=0.98
compound=CN(C)[C@H]1C[C@H](n2cnc(-c3ccc(F)cn3)c2-c2ccnc3[nH]ccc23)C1 metric="Growth Rate" measurement=0.9
compound=CCn1c(CNC(=O)c2ncc(C)nc2N)[n+](CC)c2ccc(C(=O)N(C)CCN(C)C)cc21.Cl.Cl.[Cl-] metric="Growth Rate" measurement=0.03
compound=Cc1[nH]c2c(N3CCCCC3)c(-c3ccccc3)nn2c(=O)c1-c1ccc(O)cc1 metric="Growth Rate" measurement=-0.59

Q: # value lookup — system HEK-293T, readout Growth Rate, item `Cc1nn(C)c(COc2ccc(N3CCN(S(=O)(=O)N(C)C)CC3)cc2)c1-c1cccc2c(CCCOc3cccc4ccccc34)c(C(=O)O)n(CCN3CCOCC3)c12`
A: 0.38

Q: # value lookup — system HEK-293T, readout Growth Rate, item `O=C(CNCc1cc2ccccc2[nH]1)N[C@H]1CC[C@@H](c2nc3ccccc3[nH]2)CC1`
A: -0.1

Q: # value lookup — system HEK-293T, readout Growth Rate, item `O=C(Nc1cc2cc[nH]c(=O)c2cc1Cl)[C@H]1CNC[C@@H]1c1cccnc1.O=C(O)C(F)(F)F`
A: -0.73

Q: # value lookup — system HEK-293T, readout Growth Rate, item `CCn1c(-c2ccncc2)cc2c1CCNC2=O`
A: -0.57

Q: # value lookup — system HEK-293T, readout Growth Rate, item `C[C@H](NC(=O)c1cc(Cl)ccc1Oc1ccc(F)cc1)c1ccc(C(=O)O)cc1`
A: -0.19

Q: # value lookup — system HEK-293T, readout Growth Rate, item `CCCS(=O)(=O)Nc1ccc(F)c(Nc2ncnc3cnc(-n4cnc(C)c4)nc23)c1F`
A: -0.79

Q: # value lookup — system HEK-293T, readout Growth Rate, item `CC(=O)Nc1nc(C)c(S(=O)(=O)Nc2ccc(C(O)(C(F)(F)F)C(F)(F)F)cc2)s1`
A: 0.65

Q: # value lookup — system HEK-293T, readout Growth Rate, item `CC(C)C[C@H](NC(=O)c1cc2ccccc2s1)C(=O)N1CCN(C(=O)[C@H](CO)NS(=O)(=O)c2ccc(Cl)cc2Cl)CC1`
A: 0.99

Q: # value lookup — system HEK-293T, readout Growth Rate, item COc1ccc([C@@H]2Sc3ccccc3N(CCN(C)C)C(=O)[C@@H]2OC(C)=O)cc1.Cl [DILTIAZEM HYDROCHLORIDE]
A: 0.6

====

- System: U2OS
- measurement description: Incucyte cell viability with U2OS; note: unitless GR value; below 1 slowed growth and below 0 cell loss
- Type: toxicity, cell-based
- measurement conditions: human, 18 h, 10 µM, compound concentration 10 uM, replicate number 1
metric: Growth Rate
Just the number, please, no unit attached.

Some compounds with recorded Growth Rate:
compound="CCO[C@@H](Cc1ccc(OCCc2ccc(OS(C)(=O)=O)cc2)cc1)C(=O)O [TESAGLITAZAR]" measurement=0.98
compound=COc1cc(OC)c(NC(=O)Nc2cc(C)on2)cc1Cl measurement=0.96
compound="CCS(=O)(=O)c1ccc(OC)c(Nc2ncc(-c3cccc(F)c3)o2)c1 [GW621970X]" measurement=0.79

Q: Consider the compound `COc1cc(Cl)c(C(=O)N[C@@H](CN[C@H]2CC[C@@H](N)CC2)Cc2ccc(C#N)cc2)cc1-c1ccc(CN[C@H](C)c2ccc(C)cc2)o1` and give its measured Growth Rate.
A: -0.77

Q: Consider the compound CC(=O)N1CCC(c2ccc(C(=O)NC(=N)N)cc2C(F)(F)F)CC1 [BI 9627] and give its measured Growth Rate.
A: 0.9

Q: Consider the compound `CCCCC/C=C/C=C1/C(=O)C=C[C@@H]1C/C=C\CCCC(=O)O` and give its measured Growth Rate.
A: 0.74

Q: Consider the compound `CNC(=O)c1c[nH]c2ccc(Nc3nccc(-c4ccccn4)n3)cc12` and give its measured Growth Rate.
A: 0.95

Q: Consider the compound `Cl.Cl.N#Cc1ccc(O[C@@H]2c3ccccc3C[C@H]2N2CCC[C@@H](N)C2)c(Cl)c1` and give its measured Growth Rate.
A: 0.67

Q: Consider the compound `S=c1[nH]nc(-c2cccs2)n1-c1ccccc1` and give its measured Growth Rate.
A: 0.95

Q: Consider the compound `COc1cc(-c2cn[nH]c2)ccc1C(=O)Nc1ccc2c(c1)CCNCC2.Cl` and give its measured Growth Rate.
A: 0.75

Q: Consider the compound `O=C(O)c1cc(-c2ccccc2)ccc1O` and give its measured Growth Rate.
A: 0.88

Q: Consider the compound `COCCOCn1c(S(C)(=O)=O)nc2c1c(=O)n(C)c(=O)n2C` and give its measured Growth Rate.
A: 0.93

Q: Consider the compound COc1cc2c(cc1CC=C(C)C)C(=O)C[C@@H](c1ccc(O)cc1)O2 [BAVACHININ A] and give its measured Growth Rate.
A: 0.89

Q: Consider the compound `Cn1cc(-n2cnc3c(NCc4nc5cc(Cl)c(Cl)cc5[nH]4)nc(N4CCOCC4)nc32)cn1` and give its measured Growth Rate.
A: 0.1

Q: Consider the compound `CN(C)C(=O)Cn1cc(-c2ccc(-c3cncc4ccccc34)cc2)cn1` and give its measured Growth Rate.
A: 0.99

Q: Consider the compound `O=C(Nc1ccccc1Cl)c1cnc2ccc(C3CCNCC3)cn12.O=C(O)C(=O)O` and give its measured Growth Rate.
A: 0.62

Q: Consider the compound `CC(C)(O)C(=O)N1CCN(c2ccc(C(F)(F)F)c(C3=C(c4c[nH]c5ccccc45)C(=O)NC3=O)c2)CC1` and give its measured Growth Rate.
A: 0.9

Q: Consider the compound `Cc1ncsc1-c1ccc(CNC(=O)[C@@H]2C[C@@H](O)CN2C(=O)[C@@H](NC(=O)CCCCNC(=O)c2ccc(-c3ccc(N4CCN(C)CC4)c(NC(=O)c4c[nH]c(=O)cc4C(F)(F)F)c3)cc2)C(C)(C)C)cc1` and give its measured Growth Rate.
A: 0.96

Q: Consider the compound [2H]C([2H])([2H])NC(=O)c1nnc(NC(=O)C2CC2)cc1Nc1cccc(-c2ncn(C)n2)c1OC [DEUCRAVACITINIB] and give its measured Growth Rate.
A: 0.89

Q: Consider the compound O=c1cccc2n1C[C@@H]1CNC[C@H]2C1 [CYTISINICLINE] and give its measured Growth Rate.
A: 0.97

Q: Consider the compound `CCOC(=O)CS(=O)(=O)c1ccc([C@@H](CO)NC(=O)c2cc3c(Cl)c(Cl)c(C)cc3n2C)cc1` and give its measured Growth Rate.
A: -0.31

Q: Consider the compound `Cc1cc(OCCC(C)(C)O)cc(C)c1-c1ccc(F)c2c1CC[C@H]2Oc1ccc2c(c1)OC[C@H]2CC(=O)O` and give its measured Growth Rate.
A: 0.74

Q: Consider the compound `CP(C)(=O)c1ccc(CNC(=O)C2CCN(S(=O)(=O)c3cc(Cl)cc(Cl)c3)CC2)cc1` and give its measured Growth Rate.
A: 0.74

Q: Consider the compound CCCCCCCCCCCCCC(=O)O[C@@H]1[C@@H](C)[C@@]2(O)[C@@H](C=C(CO)C[C@]3(O)C(=O)C(C)=C[C@@H]23)[C@@H]2C(C)(C)[C@]12OC(C)=O [PHORBOL MYRISTATE ACETATE] and give its measured Growth Rate.
A: 0.96

Q: Consider the compound `Cl.Cl.O=[N+]([O-])c1ccc(CN2CCOCCOCCN(Cc3ccc([N+](=O)[O-])cc3)CCOCC2)cc1` and give its measured Growth Rate.
A: 0.69

Q: Consider the compound `Cc1cc2c(cc(C(=O)N[C@H](CO)c3ccc(S(=O)(=O)CC(=O)O)cc3)n2C)c(Cl)c1Cl` and give its measured Growth Rate.
A: 0.92

Q: Consider the compound Cc1cc(C)c(NC(=O)C2CC3CCC2C3)c(C)c1 (stereo not drawn) and give its measured Growth Rate.
A: 0.75

Q: Consider the compound `c1ccc2c(c1)SCc1c-2[nH]c2ccccc12` and give its measured Growth Rate.
A: -0.63

====

- Tested on: Fibroblast
- measurement description: Incucyte cell viability with human fibroblast; note: unitless GR value; below 1 slowed growth and below 0 cell loss
- Format: toxicity, cell-based
- measurement conditions: 0 h, 10 µM, compound concentration 10 uM, replicate number 1
Consider the cut-off -0.3. If the recorded Growth Rate is strictly smaller, the label is 1; if not, the label is -1.

These recorded examples may help you get a feel for the data.
molecule=CNCc1ccc(-c2cc(-c3nc(-c4ccc(S(=O)(=O)C(C)C)cc4)cnc3N)on2)cc1 class_assignment=1
molecule="CC(C)(C)C1CCc2c(sc(NC(=O)c3ccco3)c2C(=O)O)C1 (stereo unspecified)" class_assignment=1
molecule=CC(C)c1nc2c(c3c1[C@@H](c1ccc(C(F)(F)F)cc1)OC31CCOCC1)[C@@H](O)CC(C)(C)C2.Cl class_assignment=1
molecule=Cc1cc(S(=O)(=O)N2CC(C)(C)c3cc(-c4ccc(C(F)(F)F)cc4)ccc32)ccc1OCC(=O)O class_assignment=-1
molecule="Cc1onc(O)c1CC(N)C(=O)O [(R,S)-AMPA]" class_assignment=-1
molecule=C=CC(=O)Nc1cccc(C(=O)Nc2ccc(Nc3cc(-c4c(-c5ccc(F)cc5)nc(SC)n4C)ccn3)cc2)c1 class_assignment=1
molecule="CC(N)C1CCC(C(=O)Nc2ccncc2)CC1 (stereo unspecified)" class_assignment=1
molecule=NC1=NC(=O)/C(=C2\CCNC(=O)c3[nH]c4ccccc4c32)N1 class_assignment=-1
molecule=CC(=O)N1CCC(c2ccc(C(=O)NC3=NCCN3)cc2C(F)(F)F)CC1 class_assignment=1
molecule=C=C(C)[C@H]1CN[C@H](C(=O)O)[C@H]1CC(=O)O class_assignment=-1

Q: Field: below-cutoff. Rule: recorded Growth Rate strictly less than -0.3. Subject: `CSc1nc2c(c(=O)n(C)c(=O)n2C)n1C`
A: 1

Q: Field: below-cutoff. Rule: recorded Growth Rate strictly less than -0.3. Subject: `NC(=O)c1ccc(-c2nc(-c3ccc4c(c3)OCO4)c(-c3ccccn3)[nH]2)cc1.O`
A: -1

Q: Field: below-cutoff. Rule: recorded Growth Rate strictly less than -0.3. Subject: `CC[C@H](CO)Nc1nc(Nc2cccc(-c3ccccn3)c2)c2ncn(C(C)C)c2n1.Cl.O`
A: 1
